System: H3N2 Perth/16/2009
Assay: microbe, parasite or virus in culture
Format: cell-based, influenza A virus
Conditions: Influenza A H3N2 Perth/16/2006 (so in the source); Drug Assay Neutral Red; read-out: EC50
Bridge positions count the residues as written; N and C are the ends. Square brackets hold non-standard residues; d marks the D form. Peptide text beside a SMILES is read from it. R8 = C=CCCCCCC[C@@](C)(N)C(=O)O; S5 = C=CCCC[C@](C)(N)C(=O)O; Nle = CCCC[C@H](N)C(=O)O; Aib = CC(C)(N)C(=O)O
I'd appreciate it if you could supply pEC50 values for the items below.
Field pEC50 (float): negative decimal logarithm of the concentration in molar.

Per the records, this compound ( CCCC[C@H](NC(C)=O)C(=O)N[C@@H](CC(=O)O)C(=O)N[C@H](C(=O)N[C@@H](CC(N)=O)C(=O)N[C@]1(C)CCCCCCC=CCCC[C@@](C)(C(=O)N[C@@H](CCC(N)=O)C(=O)N[C@@H](C)C(=O)N[C@@H](C)C(=O)N[C@@H](C)C(=O)N[C@@H](C)C(N)=O)NC(=O)[C@H](C)NC(=O)[C@H](CC(C)C)NC(=O)[C@H](Cc2ccccc2)NC(=O)[C@H](CC(C)C)NC(=O)[C@H](CC(C)C)NC(=O)[C@H]([C@@H](C)O)NC1=O)C(C)C [SP-27] (Ac-[Nle]DVN[R8]TLLFLA[S5]QAAAA-NH2; staple 5-12) ) has pEC50 equal to 5.77

Per the records, this compound ( CCCC[C@H](NC(C)=O)C(=O)N[C@@H](CC(=O)O)C(=O)N[C@H](C(=O)N[C@@H](CC(N)=O)C(=O)N[C@]1(C)CCCCCCC=CCCC[C@@](C)(C(=O)N[C@@H](C)C(=O)N[C@@H](C)C(=O)N[C@@H](C)C(=O)N[C@@H](C)C(=O)N[C@@H](C)C(N)=O)NC(=O)[C@H](C)NC(=O)[C@H](CC(C)C)NC(=O)[C@H](Cc2ccccc2)NC(=O)[C@H](CC(C)C)NC(=O)[C@H](CC(C)C)NC(=O)[C@H]([C@@H](C)O)NC1=O)C(C)C [SP-25] (Ac-[Nle]DVN[R8]TLLFLA[S5]AAAAA-NH2; staple 5-12) ) has pEC50 equal to 6.37

Per the records, this compound ( CCCC[C@H](NC(C)=O)C(=O)N[C@@H](CC(=O)O)C(=O)N[C@H](C(=O)N[C@@H](CC(N)=O)C(=O)N[C@@]1(C)CCCC=CCCC[C@@](C)(C(=O)N[C@@H](CC(C)C)C(=O)N[C@@H](C)C(=O)N[C@H](C(=O)N[C@@H](CCC(N)=O)C(=O)NC(C)(C)C(=O)N[C@@H](C)C(=O)N[C@@H](C)C(=O)N[C@@H](C)C(N)=O)C(C)C)NC(=O)[C@H](CC(C)C)NC(=O)[C@H](CC(C)C)NC(=O)[C@H]([C@@H](C)O)NC1=O)C(C)C [SP-21] (Ac-[Nle]DVN[S5]TLL[S5]LAVQ[Aib]AAA-NH2; staple 5-9) ) has pEC50 equal to 5.68

----------
Experiment: in vitro
Conditions: dog, CC50, run with Influenza A H1N1 California/07/20/09 (so in the source), later run; Neutral Red
Bridge positions count the residues as written; N and C are the ends. Square brackets hold non-standard residues; d marks the D form. Peptide text beside a SMILES is read from it. R8 = C=CCCCCCC[C@@](C)(N)C(=O)O; S5 = C=CCCC[C@](C)(N)C(=O)O; Nle = CCCC[C@H](N)C(=O)O; Aib = CC(C)(N)C(=O)O
I'd appreciate it if you could supply CC50 values for the items below.

Per the records, this molecule ( CCCC[C@H](NC(C)=O)C(=O)N[C@@H](CC(=O)O)C(=O)N[C@H](C(=O)N[C@@H](CC(N)=O)C(=O)N[C@]1(C)CCCCCCC=CCCC[C@@](C)(C(=O)N[C@@H](C)C(=O)N[C@@H](C)C(=O)N[C@@H](CCC(N)=O)C(N)=O)NC(=O)[C@H](C)NC(=O)[C@H](CC(C)C)NC(=O)[C@H](Cc2ccccc2)NC(=O)[C@H](CC(C)C)NC(=O)[C@H](CC(C)C)NC(=O)[C@H]([C@@H](C)O)NC1=O)C(C)C [SP-18] (Ac-[Nle]DVN[R8]TLLFLA[S5]AAQ-NH2; staple 5-12) ) has CC50 equal to > 100 µM

Per the records, this molecule ( CCCC[C@H](NC(C)=O)C(=O)N[C@@H](CC(=O)O)C(=O)N[C@H](C(=O)N[C@@H](CC(N)=O)C(=O)N[C@@]1(C)CCCC=CCCC[C@@](C)(C(=O)N[C@@H](CC(C)C)C(=O)N[C@@H](C)C(=O)N[C@H](C(=O)N[C@@H](CCC(N)=O)C(=O)N[C@@H](C)C(=O)N[C@@H](C)C(=O)NC(C)(C)C(=O)N[C@@H](C)C(N)=O)C(C)C)NC(=O)[C@H](CC(C)C)NC(=O)[C@H](CC(C)C)NC(=O)[C@H]([C@@H](C)O)NC1=O)C(C)C [SP-22] (Ac-[Nle]DVN[S5]TLL[S5]LAVQAA[Aib]A-NH2; staple 5-9) ) has CC50 equal to > 100 µM

----------
Test: in vitro
Settings: dog, CC50, MDCK cells; run with Influenza B Brisbane/60/2008; Visual
Bridge positions count the residues as written; N and C are the ends. Square brackets hold non-standard residues; d marks the D form. Peptide text beside a SMILES is read from it. S5 = C=CCCC[C@](C)(N)C(=O)O; Nle = CCCC[C@H](N)C(=O)O; Aib = CC(C)(N)C(=O)O
measured metric: CC50

Per the records, this compound ( CCCC[C@H](NC(C)=O)C(=O)N[C@@H](CC(=O)O)C(=O)N[C@H](C(=O)N[C@@H](CC(N)=O)C(=O)N[C@@]1(C)CCCC=CCCC[C@@](C)(C(=O)N[C@@H](CC(C)C)C(=O)N[C@@H](C)C(=O)N[C@H](C(=O)NC(C)(C)C(=O)N[C@@H](C)C(=O)N[C@@H](CCC(N)=O)C(N)=O)C(C)C)NC(=O)[C@H](CC(C)C)NC(=O)[C@H](CC(C)C)NC(=O)[C@H]([C@@H](C)O)NC1=O)C(C)C [SP-6] (Ac-[Nle]DVN[S5]TLL[S5]LAV[Aib]AQ-NH2; staple 5-9) ) has CC50 equal to > 100 µM

----------
I'd appreciate it if you could supply EC50 values for the items below.
Test system: H3N2 Perth/16/2009
Assay: microbe, parasite or virus in culture
Format: cell-based, influenza A virus
Conditions: Influenza A H3N2 Perth/16/2006 (so in the source); Drug Assay Neutral Red; read-out: EC50
Bridge positions count the residues as written; N and C are the ends. Square brackets hold non-standard residues; d marks the D form. Peptide text beside a SMILES is read from it. R8 = C=CCCCCCC[C@@](C)(N)C(=O)O; S5 = C=CCCC[C@](C)(N)C(=O)O; Nle = CCCC[C@H](N)C(=O)O

Per the records, this compound ( CCCC[C@H](NC(C)=O)C(=O)N[C@@H](CC(=O)O)C(=O)N[C@H](C(=O)N[C@@H](CC(N)=O)C(=O)N[C@]1(C)CCCCCCC=CCCC[C@@](C)(C(=O)N[C@@H](C)C(=O)N[C@@H](C)C(=O)N[C@@H](CCC(N)=O)C(=O)N[C@@H](C)C(=O)N[C@@H](C)C(N)=O)NC(=O)[C@H](C)NC(=O)[C@H](CC(C)C)NC(=O)[C@H](Cc2ccccc2)NC(=O)[C@H](CC(C)C)NC(=O)[C@H](CC(C)C)NC(=O)[C@H]([C@@H](C)O)NC1=O)C(C)C [SP-24] (Ac-[Nle]DVN[R8]TLLFLA[S5]AAQAA-NH2; staple 5-12) ) has EC50 equal to 3.4 µM

Per the records, this compound ( CCCC[C@H](NC(C)=O)C(=O)N[C@@H](CC(=O)O)C(=O)N[C@H](C(=O)N[C@@H](CC(N)=O)C(=O)N[C@]1(C)CCCCCCC=CCCC[C@@](C)(C(=O)N[C@@H](CCC(N)=O)C(=O)N[C@@H](C)C(=O)N[C@@H](CCC(N)=O)C(=O)N[C@@H](C)C(=O)N[C@@H](C)C(N)=O)NC(=O)[C@H](C)NC(=O)[C@H](CC(C)C)NC(=O)[C@H](Cc2ccccc2)NC(=O)[C@H](CC(C)C)NC(=O)[C@H](CC(C)C)NC(=O)[C@H]([C@@H](C)O)NC1=O)C(C)C [SP-26] (Ac-[Nle]DVN[R8]TLLFLA[S5]QAQAA-NH2; staple 5-12) ) has EC50 equal to 23 µM

----------
Experiment: in vitro
Conditions: dog, CC50, run with Influenza A H3N2 Perth/16/2006 (so in the source); Visual
Bridge positions count the residues as written; N and C are the ends. Square brackets hold non-standard residues; d marks the D form. Peptide text beside a SMILES is read from it. S5 = C=CCCC[C@](C)(N)C(=O)O; Nle = CCCC[C@H](N)C(=O)O; Aib = CC(C)(N)C(=O)O
measured metric: CC50

Per the records, this molecule ( CCCC[C@H](NC(C)=O)C(=O)N[C@@H](CC(=O)O)C(=O)N[C@H](C(=O)N[C@@H](CC(N)=O)C(=O)N[C@@]1(C)CCCC=CCCC[C@@](C)(C(=O)N[C@@H](CC(C)C)C(=O)N[C@@H](C)C(=O)N[C@H](C(=O)N[C@@H](CCC(N)=O)C(=O)NC(C)(C)C(=O)N[C@@H](C)C(=O)N[C@@H](C)C(=O)N[C@@H](C)C(N)=O)C(C)C)NC(=O)[C@H](CC(C)C)NC(=O)[C@H](CC(C)C)NC(=O)[C@H]([C@@H](C)O)NC1=O)C(C)C [SP-21] (Ac-[Nle]DVN[S5]TLL[S5]LAVQ[Aib]AAA-NH2; staple 5-9) ) has CC50 equal to > 100 µM

Every entry's value here was drawn from patent US10059741B2.
